- PROTOCOL_TEXT: Diameter and PDI from DLS measurements of mRNA nanoparticles with lipid amines
- Format: physicochemical
- MEASUREMENT_SETUP: Luciferase mRNA nanoparticle modified with lipid amine
Counter-ions that a name gives are not always drawn.
OBSERVATION_TYPE: PDI

INSERT INTO results (compound, quantitative_readout) VALUES
  ('CC(C)CCC[C@@H](C)[C@H]1CC[C@H]2[C@@H]3CC=C4C[C@@H](OC(=O)N(CCCCNCCC(C)N)CCC(C)N)CC[C@]4(C)[C@H]3CC[C@]12C (stereo partly shown) [SA76, trihydrochloride]', 0.20),
  ('CC(C)CCC[C@@H](C)[C@H]1CC[C@H]2[C@@H]3CC=C4C[C@@H](OC(=O)CCC(=O)N(CCCCNCCC(C)N)CCC(C)N)CC[C@]4(C)[C@H]3CC[C@]12C (stereo partly shown) [SA160, trihydrochloride]', 0.11),
  ('CC[C@H](CC[C@@H](C)[C@H]1CC[C@H]2[C@@H]3CC=C4C[C@@H](OC(=O)CCCCC(=O)N(CCCN)CCCCNCCCN)CC[C@]4(C)[C@H]3CC[C@]12C)C(C)C [SA90, trihydrochloride]', 0.19),
  ('CC(C)CCC[C@@H](C)[C@H]1CC[C@H]2[C@@H]3CC=C4C[C@@H](OC(=O)CCC(=O)N(CCC(C)(C)N)CCC(C)(C)N)CC[C@]4(C)[C@H]3CC[C@]12C [SA169, dihydrochloride]', 0.20);
